# Lookup of reported growth keyed by entry
System: SR leukemia
Assay: NCI-60 one-dose screen, 48 h (100 = growth as untreated, 0 = no growth, -100 = all killed)
Details: 10 µM unless noted
Compounds without any hit were thinned out: in the full panel of roughly 83,000, 20% have a hit.
Provide the reading as a plain figure in %.

{"columns": ["given_smiles", "endpoint_unit", "growth"],
 "data": [
  ["COc1ccc(/C=C(/C(=O)N2CCCCC2)c2cc(OC)c(OC)c(OC)c2)cc1", "%", 13.6],
  ["O=[N+]([O-])c1ccc(-c2ncc(-c3ccc(O)cc3O)[nH]2)cc1", "%", -28.9],
  ["Cc1nc2c(nnn2-c2ccccc2)c2nc(-c3ccccc3)oc(=O)c12", "%", 105],
  ["C=CCNCCC#N", "%", 89.7],
  ["Cc1nnc(-c2cc3c(ccc4ccccc43)oc2=O)c2cn(-c3ccc(Cl)cc3)nc12", "%", 80.4]
]}

[ask] Recall the recorded growth for `COc1ccc(Oc2[nH]n(C3=Nc4ccccc4Sc4ccccc43)c(=O)c2C#N)cc1` with SR leukemia and state it.
[reply] 130

###

Test system: PC-3 prostate
Assay: NCI-60 one-dose screen, 48 h (100 = growth as untreated, 0 = no growth, -100 = all killed)
Settings: 10 µM unless noted
About 83,000 compounds went through this panel and 20% of them were active in at least one assay; those are over-represented in the sample as a whole.
Could you please mark 1.0 for values of growth below 50% and 0.0 for values at or above it?

Use the examples below as a reference point.
{"columns": ["molecule", "assigned_category"],
 "data": [
  ["Cc1ccc(OCCn2ccc(=O)n(CCOc3ccc(Cl)cc3C(=O)c3cc(C)cc(C)c3)c2=O)cc1", 1.0],
  ["c1ccc(C(=NNc2nc3ccccc3o2)c2ccccn2)nc1", 1.0],
  ["O=C(N/N=C/c1coc2ccccc2c1=O)c1cc2oc(-c3ccccc3)cc2[nH]1", 0.0],
  ["CCOC(=O)c1c2c(cn1Cc1ccccc1)-c1oncc1CC2", 0.0],
  ["NC(N)=Nc1ccc(/C=C2\\C=Cc3ccccc32)cc1", 0.0],
  ["O=C(/C(Br)=C/c1ccccc1)c1ccccc1", 0.0],
  ["O=C1/C(=C\\c2cn(-c3nc(N4CCOCC4)nc(N4CCOCC4)n3)c3ccccc23)c2ccccc2N1c1c(Cl)cccc1Cl", 1.0],
  ["COc1cccc(CNC(=O)c2cccc(C3CC(=O)c4c(cc(OC)c(OC)c4OC)O3)c2)c1 (stereo not given)", 1.0]
]}

[ask] Please determine if `CC[n+]1c(C)ccc2cc(C)ccc21` is below 50% in terms of growth.
[reply] 0.0

[ask] Identify whether the molecule `COc1cc2c(/C=C3\C(=O)Nc4ccc(Br)cc43)c(Cl)n(C)c2cc1C` records growth below 50%.
[reply] 1.0

###

Test system: MALME-3M melanoma
Test: NCI-60 one-dose screen, 48 h (100 = growth as untreated, 0 = no growth, -100 = all killed)
Settings: 10 µM unless noted
The panel holds about 83,000 compounds, 20% with a hit somewhere; the sample as a whole holds those more often.
quantity_measured: growth (%)
API: value field is a number in %; no unit string.

Illustrative cases are given below, each with its answer.
{"columns": ["molecule", "growth [%]"],
 "data": [
  ["Cc1ccc(C(=O)Nc2ccc(CN3CCN(C)CC3)c(C(F)(F)F)c2)cc1C#Cc1cnc(N)c2ccc(C#N)cc12", -51.9],
  ["O=C(CCl)c1ccc2c(c1)CCCC2", 80.8],
  ["Cn1c2ccccc2c2ccccc21", 101],
  ["COc1ccc(-c2cc(C#N)c(NNC(C)=O)[nH]2)cc1", 106],
  ["COc1cc(-c2nn(-c3ccc(NC(=O)Nc4ccc(Cl)c(C(F)(F)F)c4)cc3)cc2-c2ccncc2)ccc1Cl", 12.1]
]}

[ask] # growth lookup, item N#CC1=C(N2CCOCC2)NC2c3ccccc3Sc3ccccc3N2C1=N (stereo unspecified)
[reply] 103

[ask] I am curious: what growth value has been reported for CC(=O)C(CO)C(=O)Nc1ccccc1 (stereo unspecified) ?
[reply] 109

[ask] Sample `CCCCCCCCCc1cc[n+](CC(=O)c2ccc([N+](=O)[O-])cc2)cc1` — what was its growth?
[reply] -34.9

[ask] Given CCCC(C)c1cc(Cc2cc(Cl)cc(Cl)c2O)c(O)c(Cc2cc(Cl)cc(Cl)c2O)c1 (stereo unspecified) , state its recorded growth.
[reply] -22.2

[ask] Tell me the measured growth of `N=C(c1ccccc1)N(Cc1ccccc1)Cc1ccccc1` , please.
[reply] 93.8

[ask] Endpoint output: growth of `COc1cc(OC)c(/C=C/c2ccc3ccccc3[n+]2C)c(OC)c1` . Value?
[reply] 3.03

Origin of values: PubChem BioAssay (NCI)
